Target: T1, WHRN NPDZ12 A64D (UniProt Q9P202 33-377, A64D)
T1 construct: WHRN, residues 33-377 of UniProtKB Q9P202 with the deafness-related mutation A64D; Mutant made by PCR-based mutagenesis; the ClinVar ids are tied to the mutations by their printed order; source: E. coli BL21 (DE3), purified (Ni2+-NTA, size-exclusion chromatography)
T1 sequence (looked up): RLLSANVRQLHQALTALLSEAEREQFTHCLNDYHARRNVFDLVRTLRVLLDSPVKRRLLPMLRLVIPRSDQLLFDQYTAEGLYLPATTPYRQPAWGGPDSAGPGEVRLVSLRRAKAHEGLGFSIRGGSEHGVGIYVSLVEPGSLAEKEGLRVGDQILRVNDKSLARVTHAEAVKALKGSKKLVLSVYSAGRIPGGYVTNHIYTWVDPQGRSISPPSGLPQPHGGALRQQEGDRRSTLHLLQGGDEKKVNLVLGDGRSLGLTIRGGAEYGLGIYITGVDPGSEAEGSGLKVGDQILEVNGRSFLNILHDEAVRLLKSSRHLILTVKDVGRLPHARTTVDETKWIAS
Experiment: ITC; MicroCal iTC200, 25 °C; 50 mM tris pH 7.5-8.0, 300 mM NaCl, 1 mM DTT, 1 mM EDTA; cell 20–50 µM, syringe 400–800 µM; one-site binding model
measure: Kd (µM)
Kindly provide the numeric value in µM only, without the unit symbol.

Documented Kd of GHSSGLYVDEEELMNAIKGFSSVTKEHTAFTDTHL (domain or fragment) [USH2A-CT (Short, S)] : 5.5
